- Test system: HEK-293T
- procedure.details: Multiplex assay against HEK293T
- Format: toxicity, cell-based
- setup.conditions: human, 48 h, 1 µM, compound concentration 1 uM
Overview of reported Population Normal (%) across a group of compounds:
Give the value in % but do not write % after it.

Past entries and their recorded results:
>  <compound>
CNC[C@H](O)c1ccc(O)c(O)c1 [EPINEPHRINE]

>  <experimental.system>
HEK-293T

>  <Population Normal (%)>
96

$$$$
>  <compound>
Cl.NCCc1ccc(O)c(O)c1 [DOPAMINE HYDROCHLORIDE]

>  <experimental.system>
HEK-293T

>  <Population Normal (%)>
95

$$$$
>  <compound>
COC[C@@H](c1ccc(C(F)(F)F)cc1)N1CCN(C2(C)CCN(C(=O)c3c(C)ncnc3C)CC2)C[C@@H]1C.O=C(O)/C=C\C(=O)O [VICRIVIROC MALEATE]

>  <experimental.system>
HEK-293T

>  <Population Normal (%)>
97

$$$$

[ask] Hello, I am looking for reported Population Normal (%) with HEK-293T for Cc1noc(-c2ccc(-c3ccc(CC(=O)O)cc3)cc2)c1NC(=O)O[C@H](C)c1ccccc1Cl . Could you help?
[reply] 95

[ask] API: value(readout= Population Normal (%), system= HEK-293T, query= O=c1cccc2n1C[C@@H]1CNC[C@H]2C1 )
[reply] 100

[ask] Missing value: Population Normal (%), HEK-293T, entry CN1CCC(C(=O)c2cccc(NC(=O)c3c(F)cc(F)cc3F)n2)CC1 . Fill in?
[reply] 96

[ask] Checklist item: Population Normal (%) tested on HEK-293T, entry O=C(O)Cc1ccccc1Nc1c(Cl)cccc1Cl , value?
[reply] 97

[ask] For the record CC(C)(C)c1ccc(S(=O)(=O)Nc2ccc(Cl)cc2C(=O)c2cc[n+]([O-])cc2)cc1 , what value of Population Normal (%) is listed for HEK-293T?
[reply] 97

###

- Test system: Fibroblast
- procedure.details: Multiplex assay against human fibroblast
- Format: toxicity, cell-based
- setup.conditions: 12 h, 1 µM, compound concentration 1 uM
Entries and their Population Hoechst High Intensity Objects (%)
// units = %; emit number, no label

>  <compound>
CC(F)(F)CN1CCOc2c(nn(-c3ccccc3Cl)c2-c2ccc(Cl)cc2)C1=O

>  <experimental.system>
Fibroblast

>  <measured.result>
0

$$$$

Now consider a different compound.
[ask] Please report the recorded Population Hoechst High Intensity Objects (%) for COc1cc2ncnc(Nc3ccc(Oc4ccccc4)cc3C)c2cc1OC.Cl .
[reply] 0

###

Listing: Population Hoechst High Intensity Objects (%) of selected compounds
- Tested on: HEK-293T
- procedure.details: Multiplex assay against HEK293T
- Assay type: toxicity, cell-based
- setup.conditions: human, 48 h, 1 µM, compound concentration 1 uM
Unit % implied. Number only.

Illustrative cases are given below, each with its answer.
>  <compound>
O=C(O)Cc1ccccc1Nc1c(Cl)cccc1Cl [DICLOFENAC]

>  <experimental.system>
HEK-293T

>  <measured.result>
2

$$$$
>  <compound>
CNC[C@H](O)c1ccc(O)c(O)c1 [EPINEPHRINE]

>  <experimental.system>
HEK-293T

>  <measured.result>
3

$$$$

[ask] Dear colleague, I am looking for the recorded Population Hoechst High Intensity Objects (%) of the following compound: CN1CCC(C(=O)c2cccc(NC(=O)c3c(F)cc(F)cc3F)n2)CC1
[reply] 3

[ask] // query Population Hoechst High Intensity Objects (%) value for entry Cl.NCCc1ccc(O)c(O)c1 [DOPAMINE HYDROCHLORIDE]
[reply] 4

[ask] Endpoint output: Population Hoechst High Intensity Objects (%) of O=c1cccc2n1C[C@@H]1CNC[C@H]2C1 [CYTISINICLINE] . Value?
[reply] 0

[ask] Value lookup for Population Hoechst High Intensity Objects (%); key = COC[C@@H](c1ccc(C(F)(F)F)cc1)N1CCN(C2(C)CCN(C(=O)c3c(C)ncnc3C)CC2)C[C@@H]1C.O=C(O)/C=C\C(=O)O [VICRIVIROC MALEATE]
[reply] 2

[ask] Field request: Population Hoechst High Intensity Objects (%) | item: COCCn1c(C)c(C)s/c1=N\C(=O)C1C(C)(C)C1(C)C
[reply] 3

[ask] Suppose we examine the compound Cc1noc(-c2ccc(-c3ccc(CC(=O)O)cc3)cc2)c1NC(=O)O[C@H](C)c1ccccc1Cl ; what Population Hoechst High Intensity Objects (%) value has been reported?
[reply] 4

[ask] If you can, please state the reported Population Hoechst High Intensity Objects (%) value of CC(C)(C)c1ccc(S(=O)(=O)Nc2ccc(Cl)cc2C(=O)c2cc[n+]([O-])cc2)cc1 [VERCIRNON] .
[reply] 2
